- System: HCC1569
- protocol-text: cell number relative to DMSO (% of DMSO); higher = more cells (less growth inhibition / toxicity)
- test-conditions: concentration: 10 µM; 24 h
Provide the recorded cell number for the entries that follow.
Form: value (number only, do not type unit).

# O=C(Cc1ccc(Cl)c(Cl)c1)OCCN1CCCC1.O=C(O)C(=O)O [AC 915 oxalate] with HCC1569: cell number is 101

The value of cell number recorded for Cc1[nH]c(C=C2C(=O)Nc3ccc(S(=O)(=O)Cc4c(Cl)cccc4Cl)cc32)c(C)c1C(=O)N1CCCC1CN1CCCC1 (stereo not drawn) when tested on HCC1569 reads 75.3

Tested system HCC1569; cell number recorded for O=C(O)c1ccc(O)c(O)c1 was 100

====

- Test system: HCC1569
- protocol-text: H1.0 immunofluorescence intensity relative to DMSO (% of DMSO); higher = stronger H1.0 induction, active = 140 or more
- test-conditions: concentration: 10 µM; 24 h
value-kind: H1.0 immunofluorescence intensity

For reference, reported H1.0 immunofluorescence intensity for Cl.Cl.Cl.NCCCCNCCCN [Spermidine trihydrochloride] stands at 82 (inactive)

The compound listed as C[C@H]1CN(C[C@H](Cc2ccccc2)C(=O)NCC(=O)O)CC[C@@]1(C)c1cccc(O)c1 has a reported H1.0 immunofluorescence intensity of 107 (inactive)

The measured H1.0 immunofluorescence intensity associated with Cc1[nH]c(C=C2C(=O)Nc3ccc(S(=O)(=O)Cc4c(Cl)cccc4Cl)cc32)c(C)c1C(=O)N1CCCC1CN1CCCC1 (centres undefined) reads 204 (active)

response.value for CS(=O)(=O)O.Cc1ccc(N(CC2=NCCN2)c2cccc(O)c2)cc1 [Phentolamine mesylate] (field: H1.0 immunofluorescence intensity) = 99.6 (inactive)

Note to self: H1.0 immunofluorescence intensity recorded for CCCCCCCCCCCCCCCCOP(=O)([O-])OCC[N+](C)(C)C was 113 (inactive)

Lookup result for C=CC(C)(C=Cc1ccc(O)cc1)CCC=C(C)C (centres undefined) ; measured H1.0 immunofluorescence intensity: 96.8 (inactive)

So, CSc1nc(-c2ccnc(NC(C)c3ccccc3)c2)c(-c2ccc(F)cc2)[nH]1 (centres undefined) ? Its H1.0 immunofluorescence intensity was 113 (inactive)

H1.0 immunofluorescence intensity for CC1(NC(=O)CBr)CCC(C(C)(C)NCC(O)COc2cccc3[nH]ccc23)CC1 (racemic) is 103 (inactive)

Given item CC1=C(C)C(=O)C(CCCCC#CCCCC#CCO)=C(C)C1=O [Docebenone] , the value recorded as its H1.0 immunofluorescence intensity is 110 (inactive)

In plain terms, CN(C)CCC(c1ccc(Cl)cc1)c1ccccn1 (centres undefined) has a documented H1.0 immunofluorescence intensity of 105 (inactive)

Lookup result for CCCC1OC2CC3C4CCC5=CC(=O)C=CC5(C)C4C(O)CC3(C)C2(C(=O)CO)O1 (centres undefined) [Budesonide] ; measured H1.0 immunofluorescence intensity: 96.4 (inactive)

For Cl.Cl.c1cnc(N2CCN(Cc3ccc4c(c3)OCO4)CC2)nc1 [Piribedil.2HCl] the compound record lists H1.0 immunofluorescence intensity as 107 (inactive)

Lookup result for CC(O)C(=O)C1=Nc2c([nH]c(N)nc2=O)NC1 (centres undefined) [Sepiapterin] ; measured H1.0 immunofluorescence intensity: 99.1 (inactive)

Reported H1.0 immunofluorescence intensity ( O=C(C=Cc1ccc(O)cc1)CC(=O)C=Cc1ccc(O)cc1 ) = 104 (inactive)
